target: Serine/threonine-protein kinase PLK1 (Homo sapiens); assay: qHTS for Inhibitors of PLK1-PDB (polo-like kinase 1 - polo-box domain): Primary Screen; details: Plk1 PBD binding of FITC phosphopeptide, fluorescence polarization; further: series mostly up to about 57 µM; on the % scale 0 is the no-effect control and ±100 the full control effect; nearly all actives have a fitted effect of over 65% in size
The whole screen tested about 360,000 compounds, of which about 10,000 (2.8%) were called active. About 4% were inconclusive and are not listed. The sample holds actives, similar compounds and a random draw of the others, so the mix is not that of the screen.

compound	unitTag	max response, negative = inhibition
O=C(NCc1ccccc1Cl)c1csc([C@@H]2O[C@H](CO)[C@@H](O)[C@H]2O)n1	%	-2.33
Cc1ccc2nc(-c3ccccc3)c(CC3CCCCC3)n2c1	%	-7.91
CCCNC(=O)c1cc2c(c(-c3cccc(-c4ccc(C#N)cc4)c3)n1)[C@@H](CCO)N(C(=O)CC)C2	%	-12.5
COc1cc(/C=C2\C(=N)N3N=C(CC(=O)N4CCOCC4)SC3=NC2=O)cc(OC)c1OC	%	-14.2
O=C(COC(=O)Cc1ccc(Cl)cc1Cl)NCc1ccco1	%	-7.73
CCOC(=O)c1c(NC(=O)CN2C(=O)NC3(CCC(C)CC3)C2=O)sc(C)c1CC (stereo not given)	%	-5.1
OC[C@@H]1CN(Cc2cccs2)C[C@H](n2cnc3c(NC4CCCC4)ncnc32)O1	%	-8.04
O=C1OCCC1=COCCCCOC=C1CCOC1=O	%	1.79
CC(=O)c1cccc(NC(=S)N2CCCC2)c1	%	-6.15
O=C(c1cc(S(=O)(=O)N2CCOCC2)ccc1Cl)N1CCOCC1	%	-9.46
COC(=O)c1c(NC(=O)C2CC(C)=C(C)CC2C(=O)O)sc2c1CCCCC2 (stereo not given)	%	-20.4
Cc1ccc(C(=O)N2CCCc3ccccc32)c(Cl)c1	%	3.98
CN(Cc1c(F)cccc1Cl)C(=O)COC(=O)Cn1cnc2ccccc2c1=O	%	-0.103
O=C(Nc1cc(S(=O)(=O)N2CCOCC2)ccc1Cl)c1cc(=O)c2ccccc2o1	%	1.44
CC(C)C[C@H]1CNC(=O)C(=O)N1C[C@@H]1CCCN1C[C@H](Cc1ccccc1)N1C[C@H](CC(C)C)N(CC2CCCCCC2)C(=O)C1=O	%	2.6
Cc1ccc([C@H]2C[C@H](O)[C@@H](n3cc(COC(=O)c4ccccc4)nn3)CN2C(=O)C2CCCCC2)cc1	%	-1.5
CC1C(=O)N(Cc2cn(Cc3ccco3)nn2)CCS(=O)(=O)N1Cc1ccc(-c2cccc(CO)c2)cc1 (stereo not given)	%	-3.83
Cc1cccc(NC(=S)N2CCC(c3nc4ccccc4s3)CC2)c1	%	-1.09
O=C(COC(=O)c1cccc(Cl)c1Cl)NC1CCCCCC1	%	-7.54
O=C(CCC1CCCN(C(=O)Cc2ccc(F)cc2)C1)N1CCN(c2ccccn2)CC1 (stereo not given)	%	2.42

###

Recorded max response, negative = inhibition values for a group of molecules are listed next.
target: Serine/threonine-protein kinase PLK1 (Homo sapiens); experiment: qHTS for Inhibitors of PLK1-PDB (polo-like kinase 1 - polo-box domain): Primary Screen; conditions: Plk1 PBD binding of FITC phosphopeptide, fluorescence polarization; further: series mostly up to about 57 µM; on the % scale 0 is the no-effect control and ±100 the full control effect; nearly all actives have a fitted effect of over 65% in size
The whole screen tested about 360,000 compounds, of which about 10,000 (2.8%) were called active. Inconclusive results (about 4%) are left out. This is one part of a sample in which actives are shown more often than they occur.
readoutLabel: max response, negative = inhibition (%)

molecule	quantitativeResult
CCc1nc2c(OCc3ccccc3)cccn2c1N(C)C(=O)c1ccco1	3.35
COC(=O)[C@]12CCCCC=C1N(CCC1=CCCCC1)C(=O)[C@H](CC(=O)NCC1CCCCC1)C2	-2.73
CC(C)(C)N1C(=O)c2c(C(=O)OCc3ccccc3)[nH]c(-c3ccccc3)c2C1=O	-11.2
Cc1nc2c(OCc3ccc(Cl)cc3Cl)cccn2c1N(C)CC1CC1	-13
CCCCCn1nnnc1-c1nc2cc3ccccc3cc2[nH]c1=O	-6.28
CCCCCCN1C[C@H](O)[C@@H](n2cc(C3CC3)nn2)C[C@@H]1c1ccc(Cl)cc1	-0.475
COc1ccc(-c2c(C#N)cnc(C)c2C)c(O)c1OC	-12.9
CC(C)(C)c1ccc(S(=O)(=O)NC(=O)C2(C)CCN2C(=O)CC2CC2)cc1 (stereo not given)	-12
Cc1nc(SCC(=O)N2CC(=O)Nc3ccccc32)c2c(C)c(C)sc2n1	-1.22
COC(=O)[C@]12CCCCC=C1N(Cc1ccc3c(c1)OCO3)C(=O)[C@H](CC(=O)N1CCOCC1)C2	-9.01

###

Recorded max response, negative = inhibition values for a group of compounds are listed next.
Target: Serine/threonine-protein kinase PLK1 (Homo sapiens)
Experiment: qHTS for Inhibitors of PLK1-PDB (polo-like kinase 1 - polo-box domain): Primary Screen; further: series mostly up to about 57 µM; on the % scale 0 is the no-effect control and ±100 the full control effect; nearly all actives have a fitted effect of over 65% in size
Conditions: Plk1 PBD binding of FITC phosphopeptide, fluorescence polarization
Text: The polo-like kinase 1 (Plk1) is a member of a conserved subfamily of serine / threonine protein kinases that plays a pivotal roles in cell proliferation. It has a C-terminal non-catalytic region called the polo-box domain (PBD) that plays a crucial role in the subcellular localization of the Plk1. […] This project employed a fluorescence polarization (FP) assay using a FITC-conjugated phospho-9-mer (p-9-mer) peptide and purified human Plk1 PBD protein. […]
About 10,000 (2.8%) of roughly 360,000 compounds were called active. About 4% were inconclusive and are not listed. This excerpt belongs to a sample that is enriched for actives.

compound	targetDesc	max response, negative = inhibition [%]
O=C(CCc1ccc(O)cc1)NN=Cc1cc(Br)ccc1O	Serine/threonine-protein kinase PLK1 (Homo sapiens)	-9.45
COc1ccc(S(=O)(=O)N2CCC(C(=O)NCCC(=O)Nc3ccccc3OC)CC2)cc1	Serine/threonine-protein kinase PLK1 (Homo sapiens)	2.5
N#Cc1ccc(-c2nc3c(Cl)cc(C(F)(F)F)cn3c2Cc2ccccc2C(F)(F)F)cc1	Serine/threonine-protein kinase PLK1 (Homo sapiens)	1.56
CC(=O)Nc1cc(-c2ccccc2N(C)C)cn2c(-c3ccc(F)c(Cl)c3)cnc12	Serine/threonine-protein kinase PLK1 (Homo sapiens)	-6.53
Cc1nc2c(OCc3ccc(Cl)cc3)cccn2c1N(C)Cc1cccs1	Serine/threonine-protein kinase PLK1 (Homo sapiens)	-7.96
O=C(c1ccc(Oc2ccc(Cl)cc2)c([N+](=O)[O-])c1)N1CCCC1	Serine/threonine-protein kinase PLK1 (Homo sapiens)	-8.04
COc1ccc(NC(=O)CN(C)C(=O)c2cc(C)oc2C)cc1	Serine/threonine-protein kinase PLK1 (Homo sapiens)	1.78
CSc1sc(C(=O)NC(=O)NCc2cccnc2)c(C)c1-c1ccon1	Serine/threonine-protein kinase PLK1 (Homo sapiens)	-0.192
Cc1sc2ncn(CC(=O)NCCCC(=O)NCc3ccc(F)cc3)c(=O)c2c1C	Serine/threonine-protein kinase PLK1 (Homo sapiens)	-9.91
O=C(NCc1ccccc1)C1c2ccccc2OCC(=O)N1C1CC1 (stereo unspecified)	Serine/threonine-protein kinase PLK1 (Homo sapiens)	2.78
CCn1c(SCC(=O)NC2=NCCS2)nnc1C(C)NC(=O)c1ccccc1F (stereo unspecified)	Serine/threonine-protein kinase PLK1 (Homo sapiens)	-16.2
CN1CCN(C(=O)c2ccc(-c3cc4nc(NCc5cccnc5)n(C)c(=O)c4s3)cc2)CC1	Serine/threonine-protein kinase PLK1 (Homo sapiens)	-24.5
COc1ccc(CC(N)c2csc(NC(=O)NC(c3ccccc3)c3ccccc3)n2)cc1 (stereo unspecified)	Serine/threonine-protein kinase PLK1 (Homo sapiens)	-3.78
Cc1cc2c(cc1C)N1C(=O)c3cc4ccccc4cc3NC(=O)C1C(=O)N2 (stereo unspecified)	Serine/threonine-protein kinase PLK1 (Homo sapiens)	-4.16
NC(=O)C1(Nc2ccccc2Cl)CCCC1	Serine/threonine-protein kinase PLK1 (Homo sapiens)	-11.6
Cc1cc2c3ccccc3[nH]c(=O)n2n1	Serine/threonine-protein kinase PLK1 (Homo sapiens)	-0.899
CCOC(=O)[C@]12CCCC=C1N(CCC1=CCCCC1)C(=O)[C@H](CC(=O)N1CCOCC1)C2	Serine/threonine-protein kinase PLK1 (Homo sapiens)	-15.5
CN(Cc1ccccc1)C(=O)CCNC(=O)Cn1cnc2ccccc2c1=O	Serine/threonine-protein kinase PLK1 (Homo sapiens)	-6.79
COC(=O)Cc1c(-c2[nH]c3ccccc3c2CC(=O)OC)[nH]c2ccccc12	Serine/threonine-protein kinase PLK1 (Homo sapiens)	0.279
Cc1sc2ncnc(SCC(=O)NC3CCS(=O)(=O)C3)c2c1C (stereo unspecified)	Serine/threonine-protein kinase PLK1 (Homo sapiens)	-10.2
Nc1ccc(C(=O)N2CCN(S(=O)(=O)c3ccc(Cl)cc3)CC2)cc1[N+](=O)[O-]	Serine/threonine-protein kinase PLK1 (Homo sapiens)	-9.21
